Source: ChEMBL document CHEMBL3120093

In this section we review reported concentration at 4 h values for a set of compounds.
- Assay Protocol: Drug uptake in rat liver at 5 mg/kg, po after 4 hrs
- Format: ADME, organism-based
- Set-up: dose 5 mg/kg, route oral
- Test Conditions: read-out: Drug uptake
I only need the number, in nM, no unit after it.

Example cases with answers are listed next.
CCN(CC)[C@@H](C(=O)N1CCC[C@H]1c1ncc(-c2ccc(-c3ccc(-c4cnc([C@@H]5CCCN5C(=O)[C@@H](NC(=O)OC)C(C)C)[nH]4)cc3)cc2)[nH]1)c1ccccc1 1230
O=C([C@@H](c1ccccc1)N1CCCCC1)N1CCC[C@H]1c1ncc(-c2ccc(-c3ccc(-c4cnc([C@@H]5CCCN5C(=O)[C@@H](c5ccccc5)N5CCCCC5)[nH]4)cc3)cc2)[nH]1 1200

Exercise: Which concentration at 4 h is reported for this compound? "COC(=O)N[C@H](C(=O)N1CCC[C@H]1c1nc(-c2ccc(-c3ccc(-c4c[nH]c([C@@H]5CCCN5C(=O)[C@@H](NC(=O)OC)C(C)C)n4)cc3)cc2)c[nH]1)C(C)C"
Solution: 2240
